Hey, just so you know, these numbers are from the kinase profiling compilation of Christmann-Franck et al. (2016).

- assayed.target: UniProt Q13237
- Sequence (Q13237 whole entry, looked up): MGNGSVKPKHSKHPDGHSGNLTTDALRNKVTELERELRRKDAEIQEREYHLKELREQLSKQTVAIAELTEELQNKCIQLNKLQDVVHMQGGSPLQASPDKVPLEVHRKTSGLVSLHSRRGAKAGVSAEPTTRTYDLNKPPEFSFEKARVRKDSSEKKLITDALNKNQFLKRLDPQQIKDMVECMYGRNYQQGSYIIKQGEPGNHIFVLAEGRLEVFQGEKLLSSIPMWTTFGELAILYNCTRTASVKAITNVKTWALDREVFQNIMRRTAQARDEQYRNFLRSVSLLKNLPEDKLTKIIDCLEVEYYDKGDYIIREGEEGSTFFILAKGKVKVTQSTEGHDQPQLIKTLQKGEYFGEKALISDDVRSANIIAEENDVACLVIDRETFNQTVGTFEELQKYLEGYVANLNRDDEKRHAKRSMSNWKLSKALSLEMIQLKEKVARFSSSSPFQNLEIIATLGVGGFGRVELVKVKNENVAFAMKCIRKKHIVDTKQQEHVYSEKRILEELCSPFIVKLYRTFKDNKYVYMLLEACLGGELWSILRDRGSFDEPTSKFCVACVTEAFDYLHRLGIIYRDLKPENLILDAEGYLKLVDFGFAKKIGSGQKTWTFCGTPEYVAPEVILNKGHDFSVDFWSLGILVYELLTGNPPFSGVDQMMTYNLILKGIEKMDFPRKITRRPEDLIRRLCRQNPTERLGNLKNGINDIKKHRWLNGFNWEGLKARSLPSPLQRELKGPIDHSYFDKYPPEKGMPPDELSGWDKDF
- protocol.details: Caliper, Mobility shift assay off-chip
- condition.parameters: compound 0.2 µM
attribute.measured: inhibition (%)

COc1cc2c(Oc3ccc4[nH]c(C)cc4c3F)ncnc2cc1OCCCN1CCCC1 | -3.4

I: Cc1ccc(Nc2nccc(N(C)c3ccc4c(C)n(C)nc4c3)n2)cc1S(N)(=O)=O
II: CNC(=O)c1cc(Oc2ccc(NC(=O)Nc3ccc(Cl)c(C(F)(F)F)c3)cc2)ccn1
III: CCN(CC)CCNC(=O)c1c(C)[nH]c(/C=C2\C(=O)Nc3ccc(F)cc32)c1C
Could you please sort these 3 entries by inhibition from high to low? Output spec: a listing of the labels in the requested order. III, II, I
(III: 9.3%, II: -0.6%, I: -2.6%)
